# System: Alternaria solani
# assay.method.text: Example M: in vivo test on Alternaria solani (leaf blotch disease/tomato/protective)
# measurement.setup: 168 h, tomato, protective, 500 ppm active substance, assessed 7 days after inoculation, read-out: % Wirkungsgrad (activity level)
# maps each entry to its pest or weed control at 500 ppm
Report only the number, with the unit % understood.

Some solved entries appear below for comparison.
CC(C)n1cc(-c2ccnc(NC(=O)N(C)C)c2)c(-c2ccc(F)cc2)n1 [Compound 233]
90
CC(C)Cn1cc(-c2ccncn2)c(-c2cccc(Cl)c2)n1 [Compound 5]
90

Read the next record carefully.
For this compound ( CC(C)Cn1cc(-c2ccnc(NCC3CC3)n2)c(-c2ccc(F)cc2)n1 [Compound 273] ), measured pest or weed control at 500 ppm is 90

###

# assay.method.text: physchem
# measurement.setup: LogPA (logP of the stated pure compound or, in a mixture, of the main isomer, 1-substituted 3-aryl-1H-pyrazole)
Note to self: values exactly at 2 are satisfied. So chromatographic logP at or above 2 is satisfied, below is not satisfied.

Some entries whose results are on file:
FC(F)(F)c1cccc(-c2nn(C3CCCCO3)cc2-c2cc(N3CCOCC3)ncn2)c1 (stereo not shown)
satisfied
FC(F)(F)c1cccc(-c2nn(C3CCCCO3)cc2-c2ccncc2)c1 (stereo not shown)
not satisfied
Fc1ccc(-c2nn(C3CCCCO3)cc2-c2cc(N3CCOCC3)ncn2)cc1 (stereo not shown)
not satisfied
O=C(Nc1ccccc1)c1cc(-c2cn(C3CCCCO3)nc2-c2cccc(Cl)c2)ccn1 (stereo not shown)
satisfied
Clc1cccc(-c2c(-c3ccncc3)cnn2C2CCCCO2)c1Cl (stereo not shown)
not satisfied
CCC(C)n1cc(-c2ccnc(NC(=O)CC3CC3)c2)c(-c2ccc(F)cc2)n1 (stereo not shown)
satisfied

Please find the next molecule below.
Query string: Decide: chromatographic logP of Fc1ccc(-c2nn(Cc3ccccc3-c3ccccc3)cc2-c2ccncc2)cc1 >= 2?
Result string: satisfied

###

# System: Fusarium graminearum
# assay.method.text: microbe, parasite or virus in culture
# Assay type: cell-based
# measurement.setup: 72 h, read-out: % Inhibition des Pilzwachstums bei 50 μM
quantity: inhibition at 50 µM
Kindly report the value followed by its unit.

CC(C)n1cc(-c2ccnc(NC(=O)c3ccsc3)c2)c(-c2ccc(F)cc2)n1
75%
CCC(=O)Nc1cc(-c2c(-c3ccc(Cl)cc3F)nn(C)c2SC)ccn1
0%
COCC(=O)Nc1cc(-c2cn(CC3CC3(Cl)Cl)nc2-c2ccc(F)cc2)ccn1 (stereo not shown)
95%

Record COCC(=O)Nc1cc(-c2cn(CC(C)C)nc2-c2ccc(F)c(C#N)c2)ccn1 . Reported inhibition at 50 µM: 88%

###

# Tested on: Alternaria solani
# assay.method.text: Example M: in vivo test on Alternaria solani (leaf blotch disease/tomato/protective)
# measurement.setup: 168 h, tomato, protective, 500 ppm active substance, assessed 7 days after inoculation, read-out: % Wirkungsgrad (activity level)
quantity: pest or weed control at 500 ppm (%)
Entry rule: numbers only, all in %.

C[C@H](O)C(=O)Nc1cc(-c2cn(C)nc2-c2ccc(F)cc2)ccn1
80

Lab note: molecule COC(=O)C(C(C)C)n1cc(-c2ccnc(NC(=O)C(C)C)c2)c(-c2ccc(F)cc2)n1 (stereo not drawn) tested on Alternaria solani; recorded pest or weed control at 500 ppm was 100

With Alternaria solani as the test system, CCC(=O)Nc1cc(-c2cn(C(C)C)nc2-c2ccc(F)cc2)ccn1 showed pest or weed control at 500 ppm of 100

For O=C(Nc1cc(-c2cn(CC(F)F)nc2-c2ccc(F)cc2)ccn1)c1ccccc1 on Alternaria solani, measured pest or weed control at 500 ppm was 100

###

The reader will find reported pest or weed control at 500 ppm values listed item by item below.
# Test system: Alternaria solani
# assay.method.text: Example M: in vivo test on Alternaria solani (leaf blotch disease/tomato/protective)
# measurement.setup: 168 h, tomato, protective, 500 ppm active substance, assessed 7 days after inoculation, read-out: % Wirkungsgrad (activity level)
Respond numerically; units are % and should not be typed.

Previously resolved entries follow.
Fc1ccc(-c2nn(C3CCCCO3)cc2-c2ccncc2)cc1 (stereo not drawn)
89
CC(C)n1cc(-c2ncnc3[nH]cnc23)c(-c2ccc(F)cc2)n1
70
CCC(=O)Nc1cc(-c2cn(C(C)C3CC3)nc2-c2ccc(F)cc2)ccn1 (stereo not drawn)
95

Value of measured pest or weed control at 500 ppm for the entry O=C(Nc1cc(-c2cn(CC(F)F)nc2-c2ccc(F)cc2)ccn1)c1cccs1 : 94

Field pest or weed control at 500 ppm (entry CC(C)(C)Cn1cc(-c2ccncc2)c(-c2c(F)cccc2F)n1 ) reads 80

The molecule listed as CCCn1cc(-c2ccnc(NC(=O)CC)c2)c(-c2ccc(F)cc2)n1 shows pest or weed control at 500 ppm equal to 100

Memo: COCCn1cc(-c2ccnc(NC(=O)Cc3ccccc3)c2)c(-c2ccc(F)cc2)n1 , reported pest or weed control at 500 ppm: 95

What the record says about CCC(=O)Nc1cc(-c2c(-c3ccc(Cl)cc3F)nn(C)c2SC)ccn1 : pest or weed control at 500 ppm is 80

###

# assay.method.text: physchem
# measurement.setup: LogPA
quantity: chromatographic logP
Give a plain numeric answer without units written out.

Below are worked cases with known answers.
CC(C)Cn1cc(-c2ccnc(NC(=O)C(C)C)n2)c(-c2ccc(F)cc2)n1
2.92
COCCn1cc(-c2ccnc(NC(=O)Cc3ccccc3)c2)c(-c2ccc(F)cc2)n1
2.6
CCn1cc(-c2ccnc(NC(=O)CCCC(=O)OC)c2)c(-c2ccc(F)cc2)n1
2.02

The compound listed as CC(C)n1cc(-c2ncnc3[nH]cnc23)c(-c2ccc(F)cc2)n1 has a reported chromatographic logP of 1.79

Lab book: chromatographic logP of COCC(=O)Nc1cc(-c2c(-c3ccc(Cl)cc3F)nn(C)c2C(F)(F)F)ccn1 noted as 3.45

chromatographic logP reading for CCn1cc(-c2ccnc(NC(=O)[C@@H]3C[C@H]3c3ccccc3)c2)c(-c2ccc(F)cc2)n1 : 3.06

The compound listed as CCC(C)C(=O)Nc1cc(-c2cn(CC(F)F)nc2-c2ccc(F)cc2)ccn1 (stereo not shown) has a reported chromatographic logP of 2.62

###

# assay.method.text: physchem
# measurement.setup: pH 2.3, LogP (pH 2.3)
Note to self: chromatographic logP under 4 means satisfied, ties and anything higher get not satisfied.

Example cases with answers are listed next.
CC1(C)OB(c2cn(C3CC3)nc2-c2ccc(F)cc2)OC1(C)C [[V-7]]
satisfied
CC(C)n1nc(-c2ccc(F)cc2)c(Br)c1C(F)(F)F [[VI-24]]
not satisfied
CCOCCn1cc(Br)c(-c2ccc(F)cc2)n1 [[VI-20]]
satisfied

Query string: chromatographic logP strictly < 4 for this molecule? Fc1ccc(-c2nn(CC3CC3(Cl)Cl)cc2Br)cc1 (stereo not shown) [[VI-10]]
Result string: not satisfied

Query string: Please state whether chromatographic logP is below 4 for CC(C1CC1)n1cc(Br)c(-c2ccc(F)cc2)n1 (stereo not shown) [[VI-22]]
Result string: not satisfied

Query string: Please state whether chromatographic logP is below 4 for CN(C)c1cccc(-c2c(-c3ccncc3)cnn2C2CCCCO2)c1 (stereo not shown) [[X-21]]
Result string: satisfied

###

chromatographic logP values, listed per item
# assay.method.text: physchem
# measurement.setup: LogPA

Worked examples follow.
Cc1csc2c(-c3cn(CC4CC4)nc3-c3ccc(F)cc3)ncnc12
3.45
CC(C)Cn1cc(-c2ccnc(NC(=O)C3CC3)c2)c(-c2ccc(F)c(C#N)c2)n1
2.77

Here's the next entry for you.
Entry under test: CC(C)n1cc(-c2ncnc3[nH]ccc23)c(-c2ccc(F)cc2)n1 . Its chromatographic logP was 1.61

###

# assay.method.text: physchem
# measurement.setup: LogPA
quantity: chromatographic logP
Returns: the value as a bare number; no unit string appended.

COCC(=O)Nc1cc(-c2cn(Cc3ccccc3F)nc2-c2ccc(F)cc2)ccn1
3.09

For this compound ( CCOC(=O)Nc1cc(-c2cn(C(C)CC)nc2-c2ccc(F)cc2)ccn1 (stereo not shown) ), measured chromatographic logP is 3.08

chromatographic logP for CC(C)Nc1nccc(-c2cn(C(C)C)nc2-c2ccc(F)cc2)n1 is 2.92

Note to self: chromatographic logP recorded for CC(C)Cn1cc(-c2ccnc(NC(C)(C)C)n2)c(-c2ccc(F)cc2)n1 was 2.94

###

# Test system: Septoria tritici
# assay.method.text: Example R: in vivo test on Septoria tritici (leaf blotch in wheat/protective)
# measurement.setup: Zymoseptoria tritici, 504 h, wheat, protective, 1000 ppm active substance, assessed 21 days after inoculation, read-out: % Wirkungsgrad (activity level)
quantity: pest or weed control at 1000 ppm (%)
Only the number, expressed in %, is required.

For orientation, consider the following solved cases.
CC(C)C(=O)Nc1cc(-c2cn(CC3CC3)nc2-c2ccc(F)cc2)ccn1
100
Fc1ccc(-c2nn(CC(F)F)cc2-c2ccncc2)cc1
100
O=C(Nc1cc(-c2cn(CC(F)F)nc2-c2ccc(F)cc2)ccn1)C1CCC1
75
CC(C)C(=O)Nc1cc(-c2cn(CC(F)F)nc2-c2ccc(F)cc2)ccn1
100
CCC(=O)Nc1cc(-c2cn(CC(F)F)nc2-c2ccc(F)cc2)ccn1
94

# CC(C)Cn1cc(-c2ccnc(NC(C)C)n2)c(-c2ccc(F)cc2)n1 with Septoria tritici: pest or weed control at 1000 ppm is 90

Field pest or weed control at 1000 ppm (system: Septoria tritici) for entry CC(C)Cn1cc(-c2ccnc(N)n2)c(-c2ccc(F)cc2)n1 = 100

So the reported pest or weed control at 1000 ppm for CC(C)Cn1cc(-c2ccncc2)c(-c2ccc(F)cc2)n1 , on Septoria tritici, turned out to be 100
